target: menin protein (Homo sapiens (Human), UniProt O00255); assay: biochemical; format: binding; settings: FP competitive binding; menin protein 4 nM, FAM-MM2 probe 2 nM; read-out: Menin Binding Affinity IC50
Sequence (O00255 whole entry): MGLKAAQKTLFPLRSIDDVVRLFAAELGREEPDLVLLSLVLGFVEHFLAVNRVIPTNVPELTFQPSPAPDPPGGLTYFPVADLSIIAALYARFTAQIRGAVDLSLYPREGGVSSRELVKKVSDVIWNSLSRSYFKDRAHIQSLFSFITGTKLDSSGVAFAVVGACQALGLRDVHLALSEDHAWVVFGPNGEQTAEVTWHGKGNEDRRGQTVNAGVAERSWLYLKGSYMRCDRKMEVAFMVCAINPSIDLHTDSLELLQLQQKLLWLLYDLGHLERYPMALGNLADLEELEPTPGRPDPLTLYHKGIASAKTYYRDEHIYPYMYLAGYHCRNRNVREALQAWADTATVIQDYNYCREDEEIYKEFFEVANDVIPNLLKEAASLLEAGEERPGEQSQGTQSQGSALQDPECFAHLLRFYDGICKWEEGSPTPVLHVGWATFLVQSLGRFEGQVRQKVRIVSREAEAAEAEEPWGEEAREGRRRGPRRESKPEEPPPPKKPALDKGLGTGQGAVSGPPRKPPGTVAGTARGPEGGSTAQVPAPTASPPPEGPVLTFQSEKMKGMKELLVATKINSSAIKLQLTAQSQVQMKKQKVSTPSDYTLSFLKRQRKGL
pIC50: −log10 of the molar value.
Mark Condition not met for pIC50 values under 6, and Condition met for everything at or above.

>>> print(df.to_string())
                                   compound              group
0  CC(=O)O[C@@H]1CCC[C@H]1C(C#N)(c1ccccc1)C1CCN(CC2CN(c3ccc(S(=O)(=O)c4ccnc(C)c4)cc3)C2)CC1 (mixture of isomers)      Condition met
1  CC(=O)O[C@H]1CCC[C@@H]1C(C#N)(c1ccccc1F)C1CCN(CC2CN(c3ccc(S(=O)(=O)C4CC4)cc3)C2)CC1 (mixture of isomers)      Condition met
2  c1ccc(CN2CCC(CC3(C4CCCC4)NCCc4ccccc43)CC2)cc1 (stereo not drawn)  Condition not met
3  N#CC(c1ccccc1)(C1CCN(CC2CN(c3ccc(S(=O)(=O)c4ccccc4)cc3)C2)CC1)[C@@H]1CCC[C@H]1OC(N)=O (mixture of isomers)      Condition met
4  COCC[C@H]1CCC[C@@H]1C(C#N)(c1ccccc1)C1CCN(CC2CN(c3ccc(S(=O)(=O)c4ccnc(C)c4)cc3)C2)CC1 (mixture of isomers)  Condition not met
5  CCNC(=O)O[C@H]1CCC[C@@H]1C(C#N)(c1ccccc1)C1CCN(CC2CN(c3ccc(S(=O)(=O)c4ccncc4)cc3)C2)CC1 (mixture of isomers)      Condition met

Source of measurements: patent US10899738B2
